system: SK-MEL-5; experiment: NCI tumour cell line growth inhibition, 48 h
The source made the active and inactive calls. Rule as the data show it: active = GI50 up to about 1.1 µM and inactive = higher.
observed property: GI50

Examples from the recorded data:
>  <compound>
Cc1cc(O)nc(NN2C(Cl)C(=O)C2c2cccc(O)c2)n1 (stereo unspecified)

>  <observed property>
GI50

>  <experimental value>
12.2 µM (inactive)

$$$$
>  <compound>
O=C1[C@H](Cl)[C@H]2c3cc4ccccc4nc3Oc3ccccc3N12

>  <observed property>
GI50

>  <experimental value>
30.9 µM (inactive)

$$$$
>  <compound>
CCOC(=O)CCCOc1cc(-c2ccccc2F)nc2cc3c(cc12)OCO3

>  <observed property>
GI50

>  <experimental value>
57.7 µM (inactive)

$$$$
>  <compound>
CC(C)Cn1cnc2c(Sc3c([N+](=O)[O-])ncn3C)nc(N)nc21

>  <observed property>
GI50

>  <experimental value>
15.2 µM (inactive)

$$$$

For every item below, please supply its GI50.
1. C/C=C\C(CC(=O)NCCC1CN(S(=O)(=O)C(F)(F)F)c2ccccc21)CC(=O)OC (stereo unspecified)
2. Cc1ccc(C)c(C(=N)c2ccccc2Cc2ccccc2)c1
3. Cc1ccc(C(=O)CC(Cl)=C(Cl)Cl)cc1

Found:
["16.9 µM (inactive)", "15.5 µM (inactive)", "> 100 µM (inactive)"]
